SYSTEM: Leukotriene B4 receptor 1 (Homo sapiens)
METHOD_SUMMARY: Inhibition of binding of [3H]LTB4 to the leukotriene B4 receptor of human peripheral neutrophils (PMN) at a concentration of 10 uM.
PROPERTY: inhibition

STRUCTURE_NOTATION: CCc1cc(C(C)=O)c(O)cc1OCc1ccc(C(=O)O)cc1
SYSTEM: Leukotriene B4 receptor 1 (Homo sapiens)
inhibition: 22%
//
STRUCTURE_NOTATION: C=CCc1cc(C(C)=O)c(O)cc1OCCCCCCC#N
SYSTEM: Leukotriene B4 receptor 1 (Homo sapiens)
inhibition: 97%
//
STRUCTURE_NOTATION: CCc1cc(C(C)=O)c(O)cc1OCCCCCCC#N
SYSTEM: Leukotriene B4 receptor 1 (Homo sapiens)
inhibition: 103%
//
STRUCTURE_NOTATION: CCc1cc(C(C)=O)c(O)cc1OCCCCc1nnn[nH]1
SYSTEM: Leukotriene B4 receptor 1 (Homo sapiens)
inhibition: 49%
//
STRUCTURE_NOTATION: C=CCc1cc(C(C)=O)c(O)cc1OCCCCCC(=O)OC
SYSTEM: Leukotriene B4 receptor 1 (Homo sapiens)
inhibition: 106%

Next up:
Field inhibition (entry C#CCCCCOc1cc(O)c(C(C)=O)cc1CC=C ) reads 74%

###

Could you please report measured inhibition for the items listed next?
SYSTEM: Leukotriene B4 receptor 1 (Homo sapiens)
METHOD_SUMMARY: Inhibition of [3H]LTB4 binding to leukotriene B4 receptor from human peripheral neutrophils (PMN), at a concentration of 1 uM
Answers are plain numbers, in %.

COMPOUND: CCCc1cc(C(C)=O)c(O)cc1OCCCCNC(C)=O
inhibition (%): 23
//
COMPOUND: CCc1cc(C(C)=O)c(O)cc1OCCCCCCC(=O)Nc1nn[nH]n1
inhibition (%): 83
//
COMPOUND: C=CCc1cc(C(C)=O)c(O)cc1OCc1ccc(C#N)cc1
inhibition (%): 28
//
COMPOUND: C=CCc1cc(C(C)=O)c(O)cc1OCc1cccc(CC#N)c1
inhibition (%): 0
//
COMPOUND: CCCCCc1cc(C(C)=O)c(O)cc1OCCCCC#N
inhibition (%): 14

Kindly give each listed record's inhibition.
1. CC(=O)c1cc(CC2CO2)c(OCCCCC#N)cc1O (stereo not given)
2. CCc1cc(C(C)=O)c(O)cc1OCCCCC(C)(C)c1nnn[nH]1
3. CC(=O)c1cc(C(C)=O)c(OCCCCC#N)cc1O
4. C=CCc1cc(C(C)=O)c(O)cc1OCC#N

1: 24; 2: 66; 3: 0; 4: 2

Please supply inhibition for each of the following items, keeping them in order.
1. CCc1cc(C(C)=O)c(O)cc1OCCCCCCCC(C)(C)c1nnn[nH]1
2. CCc1cc(C(C)=O)c(O)cc1OCCCCCCC#N
3. CC(=O)c1cc(C(C)(C)C)c(OCCCCCC(C)(C)C#N)cc1O
4. C=CCc1cc(C(C)=O)c(O)cc1OCCCCCC#N
5. C=CCc1cc(C(C)=O)c(O)cc1OCCCCC
6. CCCc1cc(C(C)=O)c(Cl)cc1OCCCCC#N

1: 96; 2: 73; 3: 2; 4: 41; 5: 23; 6: 13

###

SYSTEM: Leukotriene B4 receptor 1 (Homo sapiens)
METHOD_SUMMARY: Inhibition of binding of [3H]LTB4 to the leukotriene B4 receptor of human peripheral neutrophils (PMN) at a concentration of 10 uM.
Give inhibition for every item shown.
Write the numeric value and follow it with the unit.

Observe how each entry below is paired with its result.
COMPOUND: CC(=O)c1cc(C)c(OCCCCC#N)cc1O
inhibition: 79%
//
COMPOUND: C=CCc1cc(C(C)=O)c(O)cc1OCCCCCCCCCCC#N
inhibition: 50%
//
COMPOUND: CC(=O)c1cc(CC2CO2)c(OCCCCC#N)cc1O (stereo not drawn)
inhibition: 62%
//
COMPOUND: CC(=O)c1ccc(OCCCCC#N)cc1O
inhibition: 0%
//
COMPOUND: C=CCc1cc(C(C)=O)c(O)cc1OCCCC
inhibition: 32%

Batch: inhibition for all items listed.
1. CC(=O)c1cc(CO)c(OCCCCCCC#N)cc1O
2. CC(=O)c1cc(C(C)=O)c(OCCCCC#N)cc1O
3. C=CCc1cc(C(C)=O)c(O)cc1OCCCCCCCC#N
4. CCc1cc(C(C)=O)c(O)cc1OCCCCCCC(C)(C)C#N
5. C=CCc1cc(C(C)=O)c(O)cc1OCCCCCCC
6. CCc1cc(C(C)=O)c(O)cc1OCCCC(C)(C)C#N
7. CCCc1cc(C(C)=O)c(O)cc1OCCCCCC(=O)O

["40%", "8%", "88%", "65%", "31%", "85%", "73%"]

Reported inhibition ( CCCc1cc(C(C)=O)c(O)cc1OCCCCNC(C)=O ) = 71%

###

SYSTEM: Leukotriene B4 receptor 1 (Homo sapiens) (UniProt Q15722)
METHOD_SUMMARY: Inhibition of binding of [3H]LTB4 to the leukotriene B4 receptor of human peripheral neutrophils (PMN) at a concentration of 10 uM.
PROPERTY: inhibition (%)
Numbers only, in %.

Some entries whose results are on file:
STRUCTURE_NOTATION: C=CCc1cc(C(C)=O)c(O)cc1OCc1ccccc1C#N
inhibition [%]: 47
//
STRUCTURE_NOTATION: CCc1cc(C(C)=O)c(O)cc1OCCCCCC(C)(C)c1nnn(C)n1
inhibition [%]: 95
//
STRUCTURE_NOTATION: CCc1cc(C(C)=O)c(O)cc1OCCCCCCC(=O)NC
inhibition [%]: 97
//
STRUCTURE_NOTATION: C=CCc1cc(C(C)=O)c(O)cc1OCCCCC
inhibition [%]: 60
//
STRUCTURE_NOTATION: C=CCc1cc(C(C)=O)c(O)cc1OCCCCC#N
inhibition [%]: 92
//
STRUCTURE_NOTATION: CCc1cc(C(C)=O)c(O)cc1OCCCCCC(C)(C)C#N
inhibition [%]: 85

Hey, can you go through the list below and give me inhibition for every item?
1. CCc1cc(C(C)=O)c(O)cc1OCCCCCC(C)(C)c1nnnn1C
2. CCCCCCc1cc(C(C)=O)c(O)cc1OCCCCC#N
3. CCCc1cc(C(C)=O)c(O)cc1OCCCCC#N
4. C=CCc1cc(C(C)=O)c(O)cc1OCc1ccc(C#N)cc1
5. CCc1cc(C(C)=O)c(O)cc1OCCCCCCC(=O)N(C)C
6. CCc1cc(C(C)=O)c(O)cc1OCCCCCCc1nnn[nH]1

1. 99
2. 51
3. 84
4. 22
5. 100
6. 91

Go through the list and state inhibition for each entry.
1. CCc1cc(C(C)=O)c(O)c(C)c1OCCCCCC(C)(C)c1nnn[nH]1
2. COCc1cc(C(C)=O)c(O)cc1OCCCCCCC#N
3. CCCc1cc(C(C)=O)c(O)cc1OCCCCN
4. C=CCc1cc(C(C)=O)c(O)cc1OCCCC#N
5. CCc1cc(C(C)=O)c(O)cc1OCc1ccc(C#N)cc1
6. CCc1cc(C(C)=O)c(O)cc1OCCCC(C)(C)c1nnn[nH]1
7. CCc1cc(C(C)=O)c(O)cc1OCc1cccc(C#N)c1
8. CC(=O)c1cc(C(C)(C)C)c(OCCCCCC(C)(C)C#N)cc1O

1: 42; 2: 47; 3: 6; 4: 47; 5: 7; 6: 100; 7: 58; 8: 1

Here are 2 compounds. What values of inhibition were reported for them?
1. CCc1cc(C(C)=O)c(O)cc1OCCCCC(C)(C)C#N
2. C=CCc1cc(C(C)=O)c(O)cc1OCc1ccc(CC#N)cc1

1: 79; 2: 30

Items follow; give inhibition for each.
1. C=CCc1cc(C(C)=O)c(O)cc1OCc1cccc(C#N)c1
2. CCc1cc(C(C)=O)c(O)cc1OCCCCCn1cncn1
3. C=CCc1cc(C(C)=O)c(O)cc1OCCCCCC

1. 71
2. 82
3. 50

###

SYSTEM: Leukotriene B4 receptor (Homo sapiens) (UniProt Q9NPC1+Q15722)
Sequence (Q15722 whole entry, looked up): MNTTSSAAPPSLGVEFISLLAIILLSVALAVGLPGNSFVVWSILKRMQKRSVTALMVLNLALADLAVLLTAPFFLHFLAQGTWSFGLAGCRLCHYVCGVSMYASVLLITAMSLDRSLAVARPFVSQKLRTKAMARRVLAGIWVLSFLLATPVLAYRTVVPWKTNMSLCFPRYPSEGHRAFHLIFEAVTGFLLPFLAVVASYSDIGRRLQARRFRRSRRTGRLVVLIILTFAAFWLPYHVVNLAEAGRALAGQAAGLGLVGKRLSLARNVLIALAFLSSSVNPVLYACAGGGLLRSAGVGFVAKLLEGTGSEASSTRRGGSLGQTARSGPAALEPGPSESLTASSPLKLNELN
Sequence (Q9NPC1 whole entry, looked up): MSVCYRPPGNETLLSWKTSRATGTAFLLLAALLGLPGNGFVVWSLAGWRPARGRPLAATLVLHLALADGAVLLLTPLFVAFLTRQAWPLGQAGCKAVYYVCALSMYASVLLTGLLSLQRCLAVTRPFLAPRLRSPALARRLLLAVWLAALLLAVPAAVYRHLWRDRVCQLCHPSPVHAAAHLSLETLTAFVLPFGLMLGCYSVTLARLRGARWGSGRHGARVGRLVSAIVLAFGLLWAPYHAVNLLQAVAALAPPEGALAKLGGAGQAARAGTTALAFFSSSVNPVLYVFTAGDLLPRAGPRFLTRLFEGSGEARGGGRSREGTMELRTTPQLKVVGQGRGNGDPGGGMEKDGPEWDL
METHOD_SUMMARY: Inhibition of [3H]LTB4 binding to leukotriene B4 receptor of human peripheral neutrophils (PMN) at a concentration of 0.1 uM.
Format: protein assay
For each of the compounds below, state its inhibition.
Answers are plain numbers, in %.

Examples from the recorded data:
STRUCTURE_NOTATION: CCc1cc(C(C)=O)c(O)cc1OCCCCCC(C)(C)C(=O)O
SYSTEM: Leukotriene B4 receptor (Homo sapiens) (UniProt Q9NPC1+Q15722)
inhibition [%]: 20

STRUCTURE_NOTATION: CCc1cc(C(C)=O)c(O)cc1OCCCC(C)(C)C(N)=O
SYSTEM: Leukotriene B4 receptor (Homo sapiens) (UniProt Q9NPC1+Q15722)
inhibition [%]: 16

# per-item lookup of inhibition; items listed below
1. CCc1cc(C(C)=O)c(O)cc1OCCCCC(C)(C)C#N
2. CCc1cc(C(C)=O)c(O)cc1OCCCCCC(C)(C)c1nnnn1C

1. 5
2. 14

Give inhibition for each listed item.
1. CCc1cc(C(C)=O)c(O)cc1OCCCCCCC(C)(C)c1nnn[nH]1
2. CCc1cc(C(C)=O)c(O)cc1OCCCCC(C)(C)c1nnn[nH]1
3. CCc1cc(C(C)=O)c(O)cc1OCCCCCCC(C)(C)C#N

1. 13
2. 17
3. 11
